tgt: human RORγt ligand binding domain (RORγt LBD) (Homo sapiens (Human), UniProt P51449)
Sequence (P51449 other isoform, or with tags, fused parts or gaps): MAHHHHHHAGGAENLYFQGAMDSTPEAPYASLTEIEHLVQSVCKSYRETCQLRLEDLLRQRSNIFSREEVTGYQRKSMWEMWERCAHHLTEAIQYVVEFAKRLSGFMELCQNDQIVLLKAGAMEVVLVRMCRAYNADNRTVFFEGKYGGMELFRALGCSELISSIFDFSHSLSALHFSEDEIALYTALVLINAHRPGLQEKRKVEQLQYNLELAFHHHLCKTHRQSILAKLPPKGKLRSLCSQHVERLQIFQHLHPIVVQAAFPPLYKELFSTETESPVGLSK
method.summary: RORγt ThermoFluor® assay (thermal shift binding)
test.settings: ThermoFluor® Assay, Kd
pKd: −log10 of the molar value. Where a name gives a salt, the structure may show the parent alone.
Assign Yes whenever pKd does not fall below 8; assign No whenever it does.

Solved entries:
CCn1nc(C(=O)NC[C@@]2(O)CC[C@H](S(C)(=O)=O)C[C@@H]2O)c(C)c1-c1ccc(C[C@H](C)C(F)(F)F)cc1OC(F)F (stereo in doubt) ... Yes
CCn1nc(C(=O)NC[C@]2(C(=O)O)CC[C@H](S(C)(=O)=O)CC2)c(Cl)c1-c1ccc(CC(C)(C)C(F)(F)F)cc1OC(F)F ... No
CCn1nc(C(=O)NC[C@H]2CC[C@@H](S(C)(=O)=O)CO2)c(Cl)c1-c1ccc(N[C@H](C)C(F)(F)F)cc1OC (relative stereo) ... No

## Task Please tell me: is the compound Cn1nc(C(=O)NC[C@@]2(O)CC[C@H](S(C)(=O)=O)C[C@@H]2O)c(Cl)c1-c1ccc(CCCC(F)(F)F)cc1OC(F)F (stereo in doubt) at or over 8 in terms of pKd?
## Result No

## Task Now try CCn1nc(C(=O)NC[C@]2(C(=O)O)CC[C@@H](S(C)(=O)=O)CC2)c(Cl)c1-c1ccc(CC(C)(C)C(F)(F)F)cc1OC(F)F .
## Result No

## Task Now try CCn1nc(C(=O)NC[C@@H]2CC[C@@H](S(C)(=O)=O)CN2)c(Cl)c1-c1ccc(CC(C)(C)C(F)(F)F)cc1OC(F)F (stereo in doubt) [Example 10, hydrobromide] .
## Result Yes

## Task Now try CCn1nc(C(=O)NC[C@@]2(O)CC[C@H](S(C)(=O)=O)C[C@@H]2N)c(Cl)c1-c1ccc(CC(C)(C)C(F)(F)F)cc1OC(F)F (stereo in doubt) [Example 7, hydrobromide] .
## Result Yes

## Task Now try CCn1nc(C(=O)NC[C@]2(O)CC[C@@H](S(C)(=O)=O)CC2)c(Cl)c1-c1ccc([C@](C)(O)CC(F)(F)F)cc1OC(F)F (single isomer, unassigned) .
## Result No

## Task Now try CCCn1nc(C(=O)NC[C@H]2CC[C@H](S(C)(=O)=O)CC2)c(Cl)c1-c1ccc(C[C@@H](C)C(F)(F)F)cc1OC (single isomer, unassigned) .
## Result Yes

## Task Now try CCn1nc(C(=O)NC[C@]2(O)CC[C@H](S(C)(=O)=O)C[C@H]2O)c(Cl)c1-c1ccc(CC(C)(C)C(F)(F)F)cc1OC(F)F (single isomer, unassigned) .
## Result No

## Task Now try CCn1nc(C(=O)NC[C@@H]2CC[C@@H](S(C)(=O)=O)C[NH+]2CC(=O)ON)c(Cl)c1-c1ccc(CC(C)(C)C(F)(F)F)cc1OC(F)F (stereo in doubt) [Example 63, Trifluoroacetic Acid Salt] .
## Result Yes

## Task Now try CCn1nc(C(=O)NC[C@@H]2CC[C@@H](S(C)(=O)=O)CO2)c(Cl)c1-c1ccc(CC(C)(C)C(F)(F)F)cc1OC(F)F (racemic) .
## Result Yes

## Task Now try CCOC(=O)[C@]1(CNC(=O)c2nn(CC)c(-c3ccc(N[C@H](C)C(F)(F)F)cc3OC)c2Cl)CC[C@H](S(C)(=O)=O)CC1 (relative stereo) .
## Result Yes

Reference for the values: patent US10975037B2
